# Test system: SK-MEL-5 melanoma
# ASSAY NOTES: NCI tumour cell line growth inhibition, 48 h
OBSERVED PROPERTY: TGI

For orientation, consider the following solved cases.
| COMPOUND | TGI |
| --- | --- |
| Cc1cn(C2CC(O)C(CO)O2)c(=O)n2nnnc12 (stereo unspecified) | > 100 µM |
| NCC1Nc2ccccc2[C@@H](O)C1O (stereo partly specified) | > 100 µM |
| O=C(O)Cc1cccc2c(=O)c3ccccc3oc12 | > 100 µM |

The value of TGI measured for the compound CC1NC(=O)CC(c2ccccc2)N(N=O)C1c1ccccc1 (stereo unspecified) turned out to be > 100 µM

Record "CC(C)(C)c1cc(Br)c(O)c(CN(Cc2cc(C(C)(C)C)cc(Br)c2O)C2CCCCC2)c1" . Reported TGI: 22.8 µM

Given item "COc1cc(CNCc2cc(OC)c(OC)c(OC)c2)cc(OC)c1OC" , the value recorded as its TGI is > 10 µM

* * *

# Tested on: HOP-92 NSCLC
# ASSAY NOTES: NCI tumour cell line growth inhibition, 48 h
Catalogue of TGI values

| COMPOUND | RESULT |
| --- | --- |
| C=C1C(=O)O[C@H]2[C@H]1CC/C(COC(=O)C(=O)c1cn(Cc3ccccc3)c3ccccc13)=C\CC[C@@]1(C)O[C@@H]21 | 4.38 µM |

// sample "NCCCCN(CCCN)/[N+]([O-])=N\O" , its TGI was > 100 µM

"N=C1C(c2nc3ccccc3s2)=C(O)CN1c1cc(C(F)(F)F)ccc1Cl" has a reported TGI of 98.1 µM

Recorded TGI (compound CC(=O)OCC12C(=O)C[C@@H](C)C3(CC(c4ccoc4)OC3=O)C1CCC(OC(C)=O)C21CO1 (stereo not given in full) ): > 100 µM

So, "c1ccc(CNn2nnc3ccccc32)cc1" ? Its TGI was > 100 µM

Value of measured TGI for the entry CC(C)(C)OC(=O)NC(Cc1ccc(OCc2ccccc2)cn1)C(=O)N1CCCCC1 (stereo not given) : > 100 µM

Sample "Cc1ccc(C2=C(c3ccccc3)C(Br)(c3ccc(C)cc3)C(c3ccccc3)=C2c2ccc(C)cc2)cc1" ; TGI observed: > 100 µM

The recorded TGI for entry COC(CNC(=O)C(C)NC(=O)CCc1ccccc1)OC (stereo not given) equals > 100 µM

Record summary for O=C1CSC(c2cccc(Oc3ccccc3)c2)N1c1ccc(Cl)cc1 (stereo not given) : reported TGI = 65.7 µM

Item: COc1ccc(C2OC[C@H]3O[C@@H](OCc4ccccc4)[C@H](O)[C@@H](O)[C@@H]3O2)cc1 (stereo not given in full) | TGI: > 100 µM

* * *

Property: TGI; scope: individual compounds
# Test system: MDA-MB-231 breast
# ASSAY NOTES: NCI tumour cell line growth inhibition, 48 h

Record "CCN(CC)C(=S)N/N=C(/C)c1cccc(/C(C)=N\NC(=S)N(CC)CC)n1" . Reported TGI: 7.64 µM

The compound listed as "COc1ccc2ccccc2c1/C=C/C(=O)c1ccccc1" has a reported TGI of 7.31 µM

The reported value for "CCOC(=O)c1nc2ccc(C(F)(F)F)cc2nc1NCc1cc(OC)c(OC)c(OC)c1" in terms of TGI is > 100 µM

Entry CC(=O)OCC12C(=O)C[C@@H](C)C3(CC(c4ccoc4)OC3=O)C1CCC(OC(C)=O)C21CO1 (stereo partly specified) — recorded TGI = > 100 µM

// "O=C(NCCCNCCCNC(=O)c1cc(-c2ccccc2)nc2ccccc12)c1cc(-c2ccccc2)nc2ccccc12" : TGI value = 3.14 µM

In plain terms, NCC1Nc2ccccc2[C@@H](O)C1O (stereo partly specified) has a documented TGI of > 100 µM

The compound listed as "CCOC(=O)C(=Cc1[nH]c2ccccc2c1-c1c[nH]c2ccccc12)C(=O)OCC" has a reported TGI of 39.3 µM

// TGI value for "CC(=O)/C(C)=N/NC(=O)c1ccccc1O" : > 100 µM

Lookup result for "CC(=O)CSCc1ccccn1" ; measured TGI: > 100 µM

// field: TGI; key: COC(CNC(=O)C(C)NC(=O)CCc1ccccc1)OC (stereo unspecified) ; value = > 100 µM

Given item "O=C(NI1OC(=O)c2ccccc21)c1ccc(Cl)cc1" , the value recorded as its TGI is > 100 µM

* * *

# System: MALME-3M melanoma
# ASSAY NOTES: NCI tumour cell line growth inhibition, 48 h
Where a SMILES comes first, the peptide text is derived from it. [ ]: non-standard residue; d: D form. The star is where a group is joined. NMeF = CN[CH](Cc1ccccc1)C(=O)O; NMeV = CN[CH](C(=O)O)C(C)C; Boc = CC(C)(C)OC(=O)*
TGI: recorded values

Here are 5 compounds together with their reported answers.
| COMPOUND | TGI |
| --- | --- |
| C=C1C(=O)O[C@@H]2/C=C(\C)CC/C=C(/COC(C)=O)C[C@@H](OC(C)=O)[C@@H]12 | 8.85 µM |
| CCOC(=O)CNc1c(OCc2ccccc2)c(=O)c1=O | > 100 µM |
| O=Cc1ccc2c(c1)CC1(Cc3ccccc3C1)C2 | 36.3 µM |
| NC(N)=N/N=C/c1c[nH]c2ccccc12 | > 100 µM |
| COc1cc(CNCc2cc(OC)c(OC)c(OC)c2)cc(OC)c1OC | > 10 µM |

Summary for this compound, CC(C)C(NC(=O)OC(C)(C)C)C(=O)N(C)C(Cc1ccccc1)C(=O)N(C)C(C(=O)O)C(C)C (stereo not drawn) (Boc-Val-[NMeF]-[NMeV]-OH; configuration not given here) : TGI is > 100 µM

Sample O=C1C2C3C=C4c5ccccc5N(c5ccccc5)C4(C2C(=O)N1Cc1ccccc1)C1C(=O)N(Cc2ccccc2)C(=O)C31 (stereo not given) ; TGI observed: > 100 µM

* * *

# Test system: HCT-15 colon
# ASSAY NOTES: NCI tumour cell line growth inhibition, 48 h; in the data active means GI50 below about 0.43 µM; inactive means the rest
Write down one outcome, taken from class 1 (active), class 0 (inactive)

| COMPOUND | CLASS LABEL |
| --- | --- |
| COc1cc2ncnc(Nc3ccc(C)c(O)c3)c2cc1OC | class 0 |
| CN(C)C(=O)c1cc2cnc(Nc3ccc(-c4csc5c(=S)cc(N6CCOCC6)oc45)cc3)nc2n1C1CCCC1 | class 1 |
| C[C@@]12CC=C3c4nc(Nc5cccc(O)c5)sc4CC[C@]3(C)[C@H]1CC[C@]1(C)C(=O)CC[C@@H]21 | class 0 |
| CCOC(=O)[C@@H](N)CCC(=O)N[C@@H](CSCc1ccccc1)C(=O)N[C@@H](C(=O)OCC)c1ccccc1 | class 0 |
| O=C(NC1=CC(=O)c2ccccc2C1=O)c1ccccc1 | class 0 |
| CCCCC(O)(c1ccc(Cl)cc1)C(CN1CCOCC1)c1ccc(Cl)cc1 (centres undefined) | class 0 |
| COc1ccccc1CNCCCN1C(=O)c2ccc3c4c(ccc(c24)C1=O)C(=O)N(CCCOCCCCOCCCN)C3=O | class 0 |
| COC1=CC(=O)c2nc(-c3cccc(C)n3)[nH]c2C1=O | class 0 |

Now for a further compound.
Any idea what this test logged for "CCOC(=O)c1c(C)n(Cc2ccc(Cl)cc2Cl)c2c1c(CN(C)C)c(O)c1[nH]cnc12" ?
class 0

* * *

# Tested on: SK-MEL-28 melanoma
# ASSAY NOTES: NCI tumour cell line growth inhibition, 48 h
OBSERVED PROPERTY: TGI

| COMPOUND | TGI |
| --- | --- |
| O=C1/C(=N/O)Cc2c(Br)ccc(Br)c21 | > 100 µM |

Looking up "Cc1nc(N)sc1C(=O)/C=C\c1ccc2c(c1)OCO2" , I see its TGI listed as > 100 µM

The recorded TGI for entry "CCOC(=O)[C@@H](N)CCC(=O)N[C@@H](CSCc1ccccc1)C(=O)N[C@@H](C(=O)OCC)c1ccccc1" equals 31.7 µM

# TGI (compound: COC(=O)/C(=N\Nc1nnc(C)n1N)C(C#N)c1ccc(Cl)cc1 (stereo not given) ) is > 100 µM

compound "CSc1ccc2c(cc1=O)[C@@H](NC(=O)c1ccc(N)cc1)CCc1cc(O)c(O)c(O)c1-2" , TGI observed: > 100 µM

* * *

# System: HS 578T breast
# ASSAY NOTES: NCI tumour cell line growth inhibition, 48 h
OBSERVED PROPERTY: GI50

| MOLECULE | TARGET OF ASSAY | OBSERVED PROPERTY | RESULT |
| --- | --- | --- | --- |
| C=C1C(=O)O[C@H]2[C@H]1CC/C(COC(=O)C(=O)c1cn(Cc3ccccc3)c3ccccc13)=C\CC[C@@]1(C)O[C@@H]21 | HS 578T breast | GI50 | 3.35 µM |
| COc1ccc(-c2n[nH]nc2-c2cc(OC)c(OC)c(OC)c2)cc1 | HS 578T breast | GI50 | < 0.01 µM |
| c1cc(CNC23CC4CC(CC(C4)C2)C3)cc(C[N+](Cc2cccc(CNC34CC5CC(CC(C5)C3)C4)c2)(Cc2cccc(CNC34CC5CC(CC(C5)C3)C4)c2)Cc2cccc(CNC34CC5CC(CC(C5)C3)C4)c2)c1 (stereo not drawn) | HS 578T breast | GI50 | 8.01 µM |
| N=C1C(c2nc3ccccc3s2)=C(O)CN1c1cc(C(F)(F)F)ccc1Cl | HS 578T breast | GI50 | 35.7 µM |
| COc1ccc(Nc2c3ccccc3nc3occc23)cc1 | HS 578T breast | GI50 | 6.23 µM |

Summary line: "COc1cc2c3c(n(CCCNC(=O)OCC4c5ccccc5-c5ccccc54)c(=O)c2cc1OC)-c1cc2c(cc1/C3=C\CCNC(=O)OCC1c3ccccc3-c3ccccc31)OCO2" , HS 578T breast, reported GI50 = 1.29 µM

"COc1cc2nc3cc([N+](=O)[O-])ccc3c(NCCCNCCO)c2cc1OC" on HS 578T breast gives GI50 = 0.184 µM

Log: HS 578T breast, molecule "COc1cc2c(c(OC)c1OC)-c1ccc(OC)c(=O)cc1[C@@H](NC(=O)c1ccccc1)CC2" , GI50 = < 0.003 µM

Considering "C[C@@]12CC=C3c4nc(Nc5cccc(O)c5)sc4CC[C@]3(C)[C@H]1CC[C@]1(C)C(=O)CC[C@@H]21" , its GI50 with HS 578T breast was recorded as 2.43 µM

So the reported GI50 for "Cc1cc(C(=O)Nc2ncc(Cc3cccc(C(F)(F)F)c3)s2)c2ccccc2n1" , on HS 578T breast, turned out to be 2.41 µM

The value of GI50 recorded for "COc1nc2ccccc2cc1-c1nc2c(cnn2-c2ccc(Br)cc2)c(=O)[nH]1" when tested on HS 578T breast reads 0.0282 µM

Item "COC(=O)[C@H](C)NC(=O)NC(=O)NC(=O)CI" ; assay system HS 578T breast; GI50 reported as 21.4 µM

Let me check: "CN1C/C=C\CCOc2cccc(c2)-c2ccnc(n2)Nc2cccc(c2)C1" , system HS 578T breast, measured GI50 is 0.0641 µM
